- Tested on: MDA-MB-231 breast
- assay_protocol: NCI-60 one-dose screen, 48 h
- condition_context: 10 µM unless noted
About 83,000 compounds went through this panel and 20% of them were active in at least one assay; those are over-represented in the sample as a whole. Calls of active or inactive are those of the source. Rule for the calls: active = growth percent below 10; inactive = the rest.
Respond with a class label; see True (active), False (inactive)

Input: Recorded call for "CC(=O)OCCCCCNc1ccccc1" ?
Output: False

Input: Entry "CC(C)[N+](C)(CCOC(COc1ccccc1)COc1ccccc1)C(C)C" please
Output: False

Input: Quick one: "O=C(Nc1nc(-c2ccccc2Cl)cs1)c1cc(-c2ccccc2)nc2ccc(Cl)cc12"
Output: False

Input: How about this molecule: "COc1ccc(-c2nc(SCC(C)C)nc(N/N=C(/C)c3ccc(OC)c(OC)c3)c2C#N)cc1"
Output: False

Input: Entry "CCCCCOc1ccc(/C=N/Nc2cc(C)nc3ccc(Br)cc23)cc1" please
Output: True

Input: Proceed to "N#Cc1ccc(-c2ccc3c(c2)NC(=O)/C3=C\c2ccc[nH]2)cc1"
Output: False

Input: Similarly, "COc1cc(-c2cc(=O)oc3cc(O)ccc23)c(OC)c2c1OCO2" ?
Output: False

Input: Check "C#CCn1cc(C=C2C(=O)NC(=S)NC2=O)c2cc(Cl)ccc21" too.
Output: True

Input: Next up: "CO[C@@H]1[C@H](N(C)C(=O)c2ccccc2)C[C@@H]2O[C@]1(C)n1c3ccccc3c3c4c(c5c6ccccc6n2c5c31)C(=O)NC4=O"
Output: False

Input: "O=C1NC(=S)NC(=O)C1=Cc1cccc(C=C2C(=O)NC(=S)NC2=O)c1" ?
Output: False
